- Test system: cultured cells of Taxus baccata LINN
- procedure-text: Growth rate and taxane yield, 21-day shake culture of Taxus baccata cells with heavy metal compound, amine, antiethylene agent or Ethrel added
- Format: cell-based
- experimental-parameters: 10^−5 M added at start, 21 days
quantity-name: yield of cephalomannine

{"compound": "NCCCCN", "quantity-name": "yield of cephalomannine", "obs-value": "5.37 mg/L"}
{"compound": "NCCCCNCCCN", "quantity-name": "yield of cephalomannine", "obs-value": "7.30 mg/L"}
{"compound": "[Cl][Co][Cl] [cobalt chloride]", "quantity-name": "yield of cephalomannine", "obs-value": "6.50 mg/L"}
{"compound": "O=S([O-])([O-])=S.[Ag+].[Ag+] [silver thiosulfate, [Ag(S2O3)2]^3−]", "quantity-name": "yield of cephalomannine", "obs-value": "4.10 mg/L"}
{"compound": "NCCCNCCCCNCCCN", "quantity-name": "yield of cephalomannine", "obs-value": "5.63 mg/L"}
